Entries and their MIC, BS values follow.
Tested on: Bacillus subtilis 168
EXPERIMENT_NOTES: microbe, parasite or virus in culture
Type: cell-based
CONDITION_PARAMETERS: 168, 20 h
No end group written: not given here.
Supply the numeric figure in µM, leaving out any unit text.

>  <RESIDUE_STRING>
IPPFIKKVLTTVF [temporin-CPa]

>  <MIC, BS [µM]>
50

$$$$

Query: Entry FLSAITSILGKFF [temporin-1SPa] has what MIC, BS?
Reply: 12.5

Query: Entry FLPLLASLFSRLF [temporin-1Oc] has what MIC, BS?
Reply: 12.5

Query: Entry SILPTIVSFLSKVF [temporin-1Ga] has what MIC, BS?
Reply: 6.3
